Conditions: human gut metagenome, 24 h, 2 µM; note: call rule not given here

[
  {
    "Compound": "Br.COc1ccc2c(c1)[C@]13CCCC[C@@H]1[C@H](C2)N(C)CC3.O [DEXTROMETHORPHAN HYDROBROMIDE]",
    "Bacterial Biotransformation": "Compound NOT metabolized"
  },
  {
    "Compound": "O=C1CC2(CCCC2)CC(=O)N1CCCCN1CCN(c2ncccn2)CC1",
    "Bacterial Biotransformation": "Compound NOT metabolized"
  },
  {
    "Compound": "O=C(CCCN1CCC2(CC1)C(=O)NCN2c1ccccc1)c1ccc(F)cc1",
    "Bacterial Biotransformation": "Compound NOT metabolized"
  }
]
